Each entry below carries its reported growth inhibition.
- Protocol Summary: NCI Yeast Anticancer Drug Screen. Data for the sgs1 strain (AID 173);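 further: 0% = growth of vehicle-only control cultures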
- Settings: S. cerevisiae sgs1 mutant, at 100.0 µM, hits give high values
Compounds without any hit were thinned out: in the full panel of roughly 79,000, 15% have a hit.
Number only, in %; omit the unit.

Previously resolved entries follow.
I would be grateful if you could share the reported growth inhibition for CCOC(=O)c1sc2[n+](c1C)C(=O)/C(=C/c1cc(OC)c(OC)c(OC)c1)S2 .
95

Same question for Cc1ccc(P(c2ccc(C)cc2)c2ccc(C)cc2)cc1 please.
39

Same question for CCCCCCC(CCl)c1sc(-c2csc(CCNC(=O)OC(C)(C)C)n2)nc1C(=O)OC (centres undefined) please.
97

Same question for CN(C)c1ccc(/C=C/c2ccnc3ccc4ccccc4c23)cc1 please.
68

Same question for CCCCOc1ccc(Nc2c3ccccc3nc3ccccc23)cc1 please.
82

Others:
I would be grateful if you could share the reported growth inhibition for c1ccc(N/N=C2\CC(c3ccccc3)Oc3ccccc32)cc1 (centres undefined) .
24

----------
- Protocol Summary: NCI Yeast Anticancer Drug Screen. Data for the rad18 strain (AID 177)
- Settings: S. cerevisiae rad18 mutant growth inhibition; at 33.0 µM; hits give high values
Compounds without any hit were thinned out: in the full panel of roughly 79,000, 15% have a hit.
Label 1 when growth inhibition >= 60%; otherwise -1.

Record excerpt, results attached:
Assess whether reported growth inhibition for CCN(CC)c1ccc(N=Nc2cc(S(=O)(=O)O)ccc2O)c(O)c1 sits at 60% or higher.
-1

Same question for C#CC1=CC(=O)C(OC)=CC1=O please.
1

Same question for CC1(C)CC(=O)C(C(CC(c2ccccc2)c2cc3c(cc2O)OCO3)C2=C(O)CC(C)(C)CC2=O)=C(O)C1 (centres undefined) please.
1

Same question for O=S(=O)(CCC[C@H]1[C@@H](CCOCc2ccccc2)C2CCCN1O2)c1ccccc1 (some centres undefined) please.
-1

Same question for CCCC#CCOC(=O)c1cc([N+](=O)[O-])cc([N+](=O)[O-])c1 please.
1

Same question for Cc1ccnc(NS(=O)(=O)c2ccc(Nc3c4ccccc4nc4ccccc34)cc2)n1 please.
1

Same question for CC[C@]1(O)C[C@H]2CN(CCc3c([nH]c4ccccc34)[C@@](C(=O)OC)(c3cc4c(cc3OC)N(C)[C@H]3[C@@](O)(C(=O)OC)[C@H](OC(C)=O)[C@]5(CC)C=CCN6CC[C@]43[C@@H]65)C2)C1 please.
-1

Same question for O=C(Nc1ccn(C2CC(O)C(COC(c3ccccc3)(c3ccccc3)c3ccccc3)O2)c(=O)n1)c1ccccc1 (centres undefined) please.
1

Same question for NCC(O)CSCc1ccc(Cl)cc1 (centres undefined) please.
-1

Same question for O=C1OC(c2ccc(Cl)cc2)Sc2ccccc21 (centres undefined) please.
1

Others:
Assess whether reported growth inhibition for CNc1ccc2[nH]c3ccccc3c2c1 sits at 60% or higher.
-1

Same question for CC(O)CN1C(=O)c2cccc3cc([N+](=O)[O-])cc(c23)C1=O (centres undefined) please.
1

Same question for CCN(CC)CCSc1c2ccccc2nc2cc(NCC(=O)Nc3ccccc3-c3ccccc3NC(=O)CNc3ccc4c(SCCN(CC)CC)c5ccccc5nc4c3)ccc12 please.
1

Same question for [O-]c1c2cc(-[n+]3c(-c4ccccc4)cc(-c4ccccc4)cc3-c3ccccc3)cc1COCCOCCOCCOCCOC2 please.
-1

Same question for Cc1cc(NCCCN(C)C)c2ccc3c(ccc4c(NCCCN(C)C)cc(C)nc43)c2n1 please.
-1

----------
Each entry below carries its reported growth inhibition.
- Protocol Summary: NCI Yeast Anticancer Drug Screen. Data for the rad14 strain (AID 159);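 further: 0% = growth of vehicle-treated control cultures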
- Settings: S. cerevisiae rad14 strain growth inhibition; at 33.0 µM; hits give high values
Compounds without any hit were thinned out: in the full panel of roughly 79,000, 15% have a hit. The source made the active and inactive calls. No stated cut-off is given here; in the data, active means growth inhibition above about 70%; inactive means the rest.

I would be grateful if you could share the reported growth inhibition for CN(C)c1ccc(C(c2ccc(Cl)cc2)c2ccc(N(C)C)cc2)cc1 .
94% (active)

API: the following record is the query input.
I would be grateful if you could share the reported growth inhibition for S=C1NC2=C(CSC/C2=C\c2ccc(Cl)cc2)C(c2ccc(Cl)cc2)N1 (centres undefined) .
71% (active)

----------
- Protocol Summary: NCI Yeast Anticancer Drug Screen. Data for the mec2-1 strain (AID 157)
- Settings: S. cerevisiae mec2-1 strain, at 1.2 µM
About 79,000 compounds went through this panel and 15% of them were active in at least one assay; those are over-represented in the sample as a whole. The source made the active and inactive calls. Cut-off read from the data, not from the text of the source: active = growth inhibition above about 70%; inactive = the rest.
A correct response names exactly one class from active, inactive

Record excerpt, results attached:
I'd appreciate the recorded outcome for Cc1ccnc(NS(=O)(=O)c2ccc(Nc3c4ccccc4nc4ccccc34)cc2)n1 from this test.
inactive

Same question for Oc1ccc(Cc2nccc3cc(O)c(O)cc23)cc1O please.
inactive

Same question for CC1=NN(C(=O)CC(=O)N(C(=O)c2ccccc2)c2ccc(Cl)cc2)C(=O)C1N=Nc1ccc([N+](=O)[O-])cc1 (centres undefined) please.
inactive

Same question for CCCC(=O)OC(OC(=O)CCC)c1ccc([N+](=O)[O-])o1 please.
inactive

Same question for O=C1c2ccccc2C(=O)C1C(c1ccc(F)cc1)C1C(=O)c2ccccc2C1=O please.
inactive

Same question for OC1C#CCSCC#C/C=C\1 (centres undefined) please.
inactive

Same question for Nc1ccc2cc(Br)c3ccccc3c2c1 please.
inactive

Same question for O=C1C=CC(=O)N1c1ccc(Br)cc1Cl please.
active

Same question for O=C1C(Br)=CC(Br)(Br)C=C1Br please.
inactive

Same question for CC1=Cc2ccc(C)cc2C(=O)C1=O please.
inactive

Others:
I'd appreciate the recorded outcome for CCCCCCC(CCl)c1sc(-c2csc(CCNC(=O)OC(C)(C)C)n2)nc1C(=O)OC (centres undefined) from this test.
inactive

Same question for CN(C)N=Nc1ccc(NC=O)cc1 please.
inactive

Same question for Clc1ccc(C(c2ccc(Cl)cc2)N2CCNCC2)cc1 please.
inactive

Same question for CCc1nc2ccc(N=Nc3c(O)ccc4ccccc34)cc2[nH]1 please.
inactive

----------
- Protocol Summary: NCI Yeast Anticancer Drug Screen. Data for the wt2 strain (AID 169);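 further: 0% = growth of vehicle-treated yeast cultures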
- Settings: S. cerevisiae wt2 strain growth inhibition; at 100.0 µM; hits give high values
This is part of a sample that, as a whole, favours compounds with a hit. Of some 79,000 tested, about 15% had one in any assay.
Label criterion met when growth inhibition >= 80%; otherwise criterion not met.

Record excerpt, results attached:
Assess whether reported growth inhibition for Cc1ccc(Cl)c2c(=O)c3ccccc3[nH]c12 sits at 80% or higher.
criterion not met

Same question for Cc1cnc(/C=N\NC(N)=S)c2cccc(N)c12 please.
criterion met

Same question for O=C(O)/C=C\C(=O)NNc1ccc(Br)cc1 please.
criterion met

Others:
Assess whether reported growth inhibition for COc1ccc(/C=C2\CCc3ccccc3C2=O)cc1OC sits at 80% or higher.
criterion met

Same question for CN(C)/N=N/c1nc[nH]c1C(N)=O please.
criterion met

----------
- Protocol Summary: NCI Yeast Anticancer Drug Screen. Data for the rad50EPP+ strain (AID 151);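 further: 0% = growth of vehicle-treated control cultures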
- Settings: S. cerevisiae rad50 mutant strain, at 11.0 µM, hits give high values
Compounds without any hit were thinned out: in the full panel of roughly 79,000, 15% have a hit.
Label MET when growth inhibition >= 10%; otherwise NOT MET.

Record excerpt, results attached:
Assess whether reported growth inhibition for COc1ccc2nc(N/N=C/c3sccc3C)cc(C)c2c1 sits at 10% or higher.
NOT MET

Same question for CC[C@@]1(OC(=O)CN(C)C)C(=O)OCc2c1cc1n(c2=O)Cc2cc3ccccc3nc2-1 please.
MET

Same question for CCOc1ccc2ccc3cccnc3c2n1 please.
MET

Same question for CCCCCC/C(C)=N/Nc1ccc([N+](=O)[O-])cc1[N+](=O)[O-] please.
MET

Same question for Nc1c([N+](=O)[O-])cc2c3c(cccc13)CC2 please.
MET

Others:
Assess whether reported growth inhibition for S=c1[nH]nc(Cc2ccccc2)c(=S)[nH]1 sits at 10% or higher.
NOT MET

----------
- Protocol Summary: NCI Yeast Anticancer Drug Screen. Data for the rad50 strain (AID 155);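 further: 0% = growth of vehicle-only cultures of the same strain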
- Settings: S. cerevisiae rad50 strain growth inhibition; at 5.0 µM (retest, dose inferred, filed as 0.5); hits give high values
This is part of a sample that, as a whole, favours compounds with a hit. Of some 79,000 tested, about 15% had one in any assay. The source made the active and inactive calls. No stated cut-off is given here; in the data, active means growth inhibition above about 70%; inactive means the rest.
Measured Property: growth inhibition

I would be grateful if you could share the reported growth inhibition for c1ccc2cc(OCC3CO3)c(OCC3CO3)cc2c1 (configuration not stated) .
56% (inactive)

Same question for Cc1ccc(S(=O)(=O)N/N=C/c2c(O)ccc3ccccc23)cc1 please.
36% (inactive)

Others:
I would be grateful if you could share the reported growth inhibition for O=C(c1c(F)c(F)c(F)c(F)c1F)c1c(F)c(F)c(F)c(F)c1F .
79% (active)

Same question for CN(C)CCNC(=O)c1cccc2nc3c4ccccc4c4ccccc4c3nc12 please.
65% (inactive)

Same question for CNc1ccc2[nH]c3ccccc3c2c1 please.
7% (inactive)

Same question for CNC(=O)OCc1c(COC(=O)NC)c(C)n(-c2ccc(Cl)c(Cl)c2)c1C please.
25% (inactive)

Same question for O=[N+]([O-])c1ccc2nnnn2c1 please.
10% (inactive)

Same question for O=C(Cc1ccccc1)c1ccc(O)cc1 please.
81% (active)

Same question for O=C(Cc1ccccc1F)NC1=C(Cl)C(=O)c2ccccc2C1=O please.
14% (inactive)

Same question for O=S(=O)(Oc1c(Cl)cc(Cl)cc1Cl)c1ccccc1 please.
8% (inactive)

Same question for S=c1[nH]nc(Cc2ccccc2)c(=S)[nH]1 please.
63% (inactive)

Same question for COc1ccc2c(Cc3c4ccccc4cc4ccccc34)cncc2c1O please.
51% (inactive)

Same question for BrC/C=C/C[P+](c1ccccc1)(c1ccccc1)c1ccccc1 please.
79% (active)

Same question for N#C/C(=C1C=C/C(=N\O)C(Cl)=C\1)c1ccccc1 please.
24% (inactive)
